Property measured: melting point

Reference set, count: 3
Compound | Property measured | Reported
Cc1cc2c(nc1OCCCCN1CCN(c3cccc4ccccc34)CC1)NC(=O)CC2 [Example E2] | melting point | 76 to 78 °C
Cc1cc(=O)[nH]c2nc(CCCCCN3CCN(c4cccc(Cl)c4Cl)CC3)ccc12 [Example D3] | melting point | 195 to 196 °C
Cc1cc2ccc(CCCCCN3CCN(c4cccc(Cl)c4Cl)CC3)nc2[nH]c1=O [Example D5] | melting point | 157 to 158 °C

Now consider a different compound.
// sample O=C1NCc2ccc(OCCCCN3CCN(c4cccc5ccccc45)CC3)nc2N1 [Example F2] , its melting point was 136 to 138 °C

====

Overview of reported Emax at 1 µM across a group of compounds:
# Target desc: D2 receptor (Homo sapiens)
# Procedure text: [3H]Thymidine uptake assay for D2 intrinsic activity
# Assay type: cell-based
# Condition set: Table 2; test compound 1 μM; 1 μM Quinpirole = 100% intrinsic activity
Field: numeric (%). Do not append units.

Examples with answers:
Compound | Emax at 1 µM / %
O=c1ccc2ccc(OCCCCN3CCN(c4cccc5nccnc45)CC3)nc2[nH]1 [Example B23′] | 21
O=c1ccc2cnc(OCCCCN3CCN(c4cccc5cccnc45)CC3)nc2[nH]1 [Example G3′] | 28
CN1C(=O)CCc2cccc(N3CCN(CCCCOc4ccc5ccc(=O)[nH]c5n4)CC3)c21 [Example B38′] | 46
O=C1CCc2ccc(OCCCCN3CCN(c4cccc5ccc(=O)[nH]c45)CC3)nc2N1 [Example A47′] | 32
O=C1CCc2ccc(OCCCCN3CCN(c4cccc5cnccc45)CC3)nc2N1 [Example A37′] | 45
O=c1ccc2cnc(OCCCCN3CCN(c4cccc5c4OC(F)(F)O5)CC3)cc2[nH]1 [Example H9′] | 31

Measured Emax at 1 µM, CC1(C)Cc2cccc(N3CCN(CCCCOc4ccc5c(n4)NC(=O)CC5)CC3)c2O1 [Example A3′] : 37

// Emax at 1 µM value for O=C1CCc2ccc(OCCCCN3CCN(c4cccc5[nH]c(=O)oc45)CC3)nc2N1 [Example A1′] : 73

Given item O=c1ccc2cnc(OCCCCN3CCN(c4cccc5c4OC(F)(F)O5)CC3)nc2[nH]1 [Example G7′] , the value recorded as its Emax at 1 µM is 38

Input O=C1CCc2ccc(OCCCCN3CCN(c4cccc5c4OCC5)CC3)nc2N1 [Example A2′] . Output Emax at 1 µM: 21

Briefly, Emax at 1 µM measured for COc1ccc2c(N3CCN(CCCCOc4ccc5c(n4)NC(=O)CC5)CC3)cccc2n1 [Example A43′] : 32

Entry Cc1nc(OCCCCN2CCN(c3cccc4c3OCCO4)CC2)nc2[nH]c(=O)ccc12 [Example G10′] ; Emax at 1 µM = 18

Input CC1(C)CC(=O)Nc2nc(OCCCCN3CCN(c4cccc5c4OCCC5)CC3)ccc21 [Example C6′] . Output Emax at 1 µM: 24

Lookup result for O=c1ccc2ccc(OCCCCN3CCN(c4cccc5[nH]ccc45)CC3)nc2[nH]1 [Example B24′] ; measured Emax at 1 µM: 42

O=c1ccc2ccc(OCCCCN3CCN(c4cccc5ccc(=O)[nH]c45)CC3)nc2[nH]1 [Example B36′] yielded Emax at 1 µM of 36

The measured Emax at 1 µM associated with Cc1ccc2cccc(N3CCN(CCCCOc4ncc5ccc(=O)[nH]c5n4)CC3)c2n1 [Example G9′] reads 21

GET /value?item= O=c1ccc2ccc(OCCCCN3CCN(c4cccc5c4OCCC5)CC3)nc2[nH]1 [Example B1′] &field=Emax at 1 µM returns 22

====

Entries and their measured Emax at 1 µM follow.
# Target desc: D2 receptor (Homo sapiens)
# Procedure text: [3H]Thymidine uptake assay for D2 intrinsic activity
# Type: cell-based
# Condition set: Table 1; test compound 1 μM; 1 μM Quinpirole = 100% intrinsic activity
Number only, in %; omit the unit.

// below: answered compounds
Structure notation | Value unit | Reported
Cc1cc(N2CCN(CCCCOc3ccc4ccc(=O)[nH]c4n3)CC2)c(Cl)cc1F | % | 28
O=C1CCc2c(C(F)(F)F)cc(OCCCCN3CCN(c4cccc5c4CCC5)CC3)nc2N1 | % | 11
O=c1ccc2ccc(OCCCCN3CCN(c4ncccn4)CC3)nc2[nH]1 | % | 83
O=c1ccc2ccc(OCCCCN3CCN(c4ccc(F)c5ccccc45)CC3)nc2[nH]1 | % | 17
O=C1CCc2ccc(OCCCCN3CCN(c4cccc(C(F)(F)F)c4)CC3)nc2N1 | % | 23

// recorded Emax at 1 µM for `CC(=O)c1ccc2cccc(N3CCN(CCCCOc4ccc5c(n4)NC(=O)CC5)CC3)c2c1` : 24

For record `Cc1cccc(N2CCN(CCCCCc3ccc4c(n3)NC(=O)CC4)CC2)n1` the listed Emax at 1 µM is 34

Item: `CC1(C)CCc2cccc(N3CCN(CCCCOc4ccc5c(n4)NC(=O)CC5)CC3)c2C1=O` | Emax at 1 µM: 32

====

# Emax at 1 µM values compiled below
# Target desc: D2 receptor (Homo sapiens, UniProt P14416)
# Sequence (P14416 whole entry): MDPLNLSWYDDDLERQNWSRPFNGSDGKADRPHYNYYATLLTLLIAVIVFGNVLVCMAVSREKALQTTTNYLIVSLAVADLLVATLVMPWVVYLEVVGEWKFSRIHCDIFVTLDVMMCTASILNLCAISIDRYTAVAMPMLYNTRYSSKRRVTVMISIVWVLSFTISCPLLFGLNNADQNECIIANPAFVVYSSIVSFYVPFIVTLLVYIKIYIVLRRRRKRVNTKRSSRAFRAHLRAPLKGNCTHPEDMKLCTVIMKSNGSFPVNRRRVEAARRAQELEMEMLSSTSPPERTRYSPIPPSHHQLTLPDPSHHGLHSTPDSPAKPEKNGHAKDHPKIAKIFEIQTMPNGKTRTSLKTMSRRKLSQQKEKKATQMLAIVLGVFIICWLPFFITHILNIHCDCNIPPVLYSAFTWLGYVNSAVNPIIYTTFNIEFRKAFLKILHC
# Procedure text: [3H]Thymidine uptake assay for D2 intrinsic activity
# Assay type: cell-based
# Condition set: Table 1; test compound 1 μM; 1 μM Quinpirole = 100% intrinsic activity

`CCc1cccc(N2CCN(CCCCOc3nc(C)c4ccc(=O)[nH]c4n3)CC2)n1` yielded Emax at 1 µM of 46%

For `O=c1ccc2ccc(OCCCCN3CCN(c4ccc(F)c(Cl)c4)CC3)nc2[nH]1` the molecule record lists Emax at 1 µM as 37%

Looking up `CCc1ccccc1N1CCN(CCCCOc2ccc3c(n2)NC(=O)CC3)CC1` , I found its Emax at 1 µM recorded as 24%

The recorded Emax at 1 µM for `O=C1COc2ccc(OCCCCN3CCN(c4cccc(Cl)c4Cl)CC3)nc2N1` is 25%

Measured Emax at 1 µM of `O=c1[nH]c2nc(OCCCCN3CCN(c4cccc(Cl)c4Cl)CC3)ccc2cc1F` : 15%

The recorded Emax at 1 µM for entry `CC(C)COc1ccccc1N1CCN(CCCCOc2ccc3c(n2)NC(=O)CC3)CC1` equals 38%

According to the records, this molecule `CC(=O)c1cccc2c(N3CCN(CCCCOc4ccc5c(n4)NC(=O)CC5)CC3)cccc12` displays Emax at 1 µM of 30%

Just so you know, measured Emax at 1 µM for `CC(=O)c1ccc2c(N3CCN(CCCCOc4ccc5ccc(=O)[nH]c5n4)CC3)cccc2c1` came out at 18%

====

# Target desc: D2 receptor (Homo sapiens)
# Procedure text: [3H]Thymidine uptake assay for D2 intrinsic activity
# Type: cell-based
# Condition set: Table 1; test compound 1 μM; 1 μM Quinpirole = 100% intrinsic activity
Collected Emax at 1 µM values appear next to each entry.
Report as a plain number; the unit % is understood.

Completed entries (count: 6):
Compound | Target desc | Emax at 1 µM, %
CC(=O)c1ccc2ccccc2c1N1CCN(CCCCOc2ccc3c(n2)NC(=O)CC3)CC1 [Example A82] | D2 receptor (Homo sapiens) | 27
O=C1CCc2cccc(N3CCN(CCCCOc4ccc5ccc(=O)[nH]c5n4)CC3)c2C1 [Example B40] | D2 receptor (Homo sapiens) | 36
CC(=O)c1ccc2cccc(N3CCN(CCCCOc4ccc5ccc(=O)[nH]c5n4)CC3)c2c1 [Example B62] | D2 receptor (Homo sapiens) | 21
CN1Cc2ccc(OCCCCN3CCN(c4cccc(Cl)c4Cl)CC3)nc2NC1=O [Example F7] | D2 receptor (Homo sapiens) | 11
O=C1CCc2ccc(OCCCCN3CCN(c4cccc5ccccc45)CC3)nc2N1 [Example A48] | D2 receptor (Homo sapiens) | 34
CCc1c(Cl)cccc1N1CCN(CCCCOc2ccc3c(n2)NC(=O)CC3)CC1 [Example A29] | D2 receptor (Homo sapiens) | 20

Emax at 1 µM measured on O=C1CCc2ccc(OCCCCN3CCN(c4cccc5c4CCCC5(F)F)CC3)nc2N1 [Example A59] = 30

Measured Emax at 1 µM, CC1CC(=O)Nc2nc(OCCCCN3CCN(c4cccc(Cl)c4Cl)CC3)ccc21 (single isomer, unassigned) [Example D2a] : 20

====

# Target desc: D2 receptor (Homo sapiens, UniProt P14416)
# Procedure text: [3H]Thymidine uptake assay for D2 intrinsic activity
# Format: cell-based
# Condition set: Table 1; test compound 1 μM; 1 μM Quinpirole = 100% intrinsic activity
Entries and their Emax at 1 µM
Your answer is read as %, so omit the unit and give the number.

// recorded Emax at 1 µM for `COc1cccc(N2CCN(CCCCOc3ccc4ccc(=O)[nH]c4n3)CC2)c1Cl` : 32

Briefly, Emax at 1 µM measured for `O=C1CCc2ccc(CCCCCN3CCN(c4ccc(F)c(Cl)c4Cl)CC3)nc2N1` : 7

====

# Target desc: D2 receptor (Homo sapiens)
# Procedure text: [3H]Thymidine uptake assay for D2 intrinsic activity
# Type: cell-based
# Condition set: Table 2; test compound 1 μM; 1 μM Quinpirole = 100% intrinsic activity
Rule: class 1 for Emax at 1 µM not less than 30%, class 0 for anything less.

Use these answered entries as a reference point.
Molecule | Classification
O=c1ccc2ccc(OCCCCN3CCN(c4cccc5sccc45)CC3)nc2[nH]1 [Example B25′] | class 0
CC1(C)C=Cc2cccc(N3CCN(CCCCOc4ccc5ccc(=O)[nH]c5n4)CC3)c2O1 [Example B2′] | class 1
O=c1ccc2ccc(OCCCCN3CCN(c4cccc5c4OC4(CCCC4)CC5)CC3)nc2[nH]1 [Example B7′] | class 1
O=C1CCc2ccc(OCCCCN3CCN(c4cccc5nonc45)CC3)nc2N1 [Example A29′] | class 1

Hello, I need to know if CC1(C)C=Cc2cccc(N3CCN(CCCCOc4ccc5c(n4)NC(=O)CC5)CC3)c2O1 [Example A5′] has measured Emax at 1 µM not below 30%. Thanks!
class 1

Check this molecule for Emax at 1 µM at or above 30%: O=c1ccc2cnc(OCCCCN3CCN(c4cccc5c4OCC5)CC3)cc2[nH]1 [Example H6′]
class 0

Form field: Emax at 1 µM at least 30%? Entry: O=C1CCc2ccc(OCCCCN3CCN(c4cccc5nccnc45)CC3)nc2N1 [Example A44′]
class 0

Decide: Emax at 1 µM of O=c1ccc2ccc(OCCCCN3CCN(c4cccc5ncc(F)cc45)CC3)nc2[nH]1 [Example B34′] >= 30%?
class 1

Every entry's value here was drawn from patent US7160888B2.
